Source of measurements: DBAASP

# Klebsiella pneumoniae ATCC 13883: MIC values follow
Kindly answer with a numeric value in µM, unit omitted.

Some entries whose results are on file:
INSERT INTO measurements (compound, numeric_result) VALUES
  ('CC(C)[C@H](NC(=O)CNC(=O)[C@@H](N)Cc1cnc[nH]1)C(=O)N[C@@H](CO)C(=O)NCC(=O)N[C@@H](Cc1cnc[nH]1)C(=O)NCC(=O)N[C@@H](CCC(N)=O)C(=O)N[C@@H](Cc1cnc[nH]1)C(=O)NCC(=O)N[C@H](C(=O)N[C@@H](Cc1cnc[nH]1)C(=O)NCC(=O)O)[C@@H](C)O [HGVSGHGQHGTHG]', 6.31),
  ('CC(C)[C@@H]1NC(=O)[C@H](CCCN=C(N)N)NC(=O)[C@H](Cc2ccccc2)NC(=O)[C@@H](NC(=O)[C@H](Cc2c[nH]c3ccccc23)NC(=O)[C@@H](N)CCCCN)CSSC[C@@H](C(=O)N[C@@H](CCCN=C(N)N)C(=O)O)NC(=O)[C@H](CCCN=C(N)N)NC(=O)[C@H](CCCN=C(N)N)NC(=O)[C@H](Cc2ccc(O)cc2)NC(=O)[C@@H]2CSSC[C@H](NC1=O)C(=O)N[C@@H](Cc1ccc(O)cc1)C(=O)N[C@@H](CCCN=C(N)N)C(=O)NCC(=O)NCC(=O)N2 [KWCFRVCYRGGCYRRCR]', 0.113);

Okay, next one:
Exercise: Give its MIC value. Item: CC[C@H](C)[C@H](NC(=O)[C@H](CO)NC(=O)[C@@H](NC(=O)[C@H](CCCCN)NC(=O)[C@H](Cc1ccccc1)NC(=O)[C@@H]1CCCN1)[C@@H](C)CC)C(=O)N[C@@H](Cc1cnc[nH]1)C(=O)N[C@@H](CC(C)C)C(N)=O [PFKISIHL]
Key: 10.5

* * *

Each record here notes measured MIC.
Tested on: Staphylococcus aureus ATCC 25923
Kindly answer with a numeric value in µM, unit omitted.

Some entries whose results are on file:
INSERT INTO results (compound, value_units, numeric_result) VALUES
  ('CC[C@H](C)[C@H](NC(=O)[C@H](CCCN=C(N)N)NC(=O)[C@H](CCC(N)=O)NC(=O)[C@@H](NC(=O)[C@@H](NC(=O)[C@@H](N)CCCN=C(N)N)[C@@H](C)CC)C(C)C)C(=O)N[C@@H](C)C(=O)N[C@@H](CCCCN)C(=O)N[C@@H](Cc1c[nH]c2ccccc12)C(=O)N[C@@H](C)C(=O)N[C@@H](CCCCN)C(=O)N[C@@H](CCCCN)C(=O)N[C@@H](Cc1c[nH]c2ccccc12)C(=O)N[C@@H](Cc1ccc(O)cc1)C(=O)N[C@@H](CCCCN)C(=O)N[C@@H](C)C(=O)NCC(=O)N[C@@H](CCCCN)C(N)=O [RIVQRIAKWAKKWYKAGK]', 'µM', 13.7),
  ('CC[C@H](C)[C@H](NC(=O)[C@H](CCCCN)NC(=O)[C@H](CCC(N)=O)NC(=O)[C@H](CC(C)C)NC(=O)[C@@H](N)Cc1ccccc1)C(=O)N[C@H](C(=O)NCC(=O)N[C@@H](C)C(=O)N[C@@H](CC(C)C)C(=O)NCC(=O)N[C@@H](CCCCN)C(=O)N[C@@H](CC(C)C)C(=O)N[C@@H](Cc1ccccc1)C(N)=O)[C@@H](C)CC [FLQKIIGALGKLF]', 'µM', 1.6);

Okay, next one:
Exercise: State its MIC on Staphylococcus aureus ATCC 25923: CC[C@H](C)[C@H](NC(=O)[C@H](Cc1c[nH]c2ccccc12)NC(=O)[C@H](CCCCN)NC(=O)[C@H](CCCCN)NC(=O)[C@H](CC(C)C)NC(=O)[C@H](Cc1c[nH]c2ccccc12)NC(=O)[C@H](CCCCN)NC(=O)[C@@H](N)Cc1c[nH]c2ccccc12)C(=O)N[C@@H](CCCCN)C(=O)O [WKWLKKWIK]
Key: 0.7
